molecular target: HLA-B*27:05; experiment: IEDB peptide-MHC binding, purified MHC/direct/fluorescence; filed as Kd, often an IC50 or EC50 that approximates it; bounds were set here for any values at or beyond the usual limits of such assays; details: source organism: West Nile virus
Readout name: Kd

>>> result("LYAVTTAVL")
"≥ 20 µM"

---

target: HLA-B*27:05; assay: IEDB peptide-MHC binding, purified MHC/direct/fluorescence; filed as Kd, often an IC50 or EC50 that approximates it; bounds were set here for any values at or beyond the usual limits of such assays; conditions: source organism: Salmonella enterica
pKd: −log10 of the molar value.
Readout name: pKd

>>> result("QTDDGVRFT")
"≤ 4.70"
